Data origin, for the record: patent US20240115557A1

target_or_system: SaCas9 (Staphylococcus aureus, UniProt J7RUA5)
Sequence (J7RUA5 1-1053): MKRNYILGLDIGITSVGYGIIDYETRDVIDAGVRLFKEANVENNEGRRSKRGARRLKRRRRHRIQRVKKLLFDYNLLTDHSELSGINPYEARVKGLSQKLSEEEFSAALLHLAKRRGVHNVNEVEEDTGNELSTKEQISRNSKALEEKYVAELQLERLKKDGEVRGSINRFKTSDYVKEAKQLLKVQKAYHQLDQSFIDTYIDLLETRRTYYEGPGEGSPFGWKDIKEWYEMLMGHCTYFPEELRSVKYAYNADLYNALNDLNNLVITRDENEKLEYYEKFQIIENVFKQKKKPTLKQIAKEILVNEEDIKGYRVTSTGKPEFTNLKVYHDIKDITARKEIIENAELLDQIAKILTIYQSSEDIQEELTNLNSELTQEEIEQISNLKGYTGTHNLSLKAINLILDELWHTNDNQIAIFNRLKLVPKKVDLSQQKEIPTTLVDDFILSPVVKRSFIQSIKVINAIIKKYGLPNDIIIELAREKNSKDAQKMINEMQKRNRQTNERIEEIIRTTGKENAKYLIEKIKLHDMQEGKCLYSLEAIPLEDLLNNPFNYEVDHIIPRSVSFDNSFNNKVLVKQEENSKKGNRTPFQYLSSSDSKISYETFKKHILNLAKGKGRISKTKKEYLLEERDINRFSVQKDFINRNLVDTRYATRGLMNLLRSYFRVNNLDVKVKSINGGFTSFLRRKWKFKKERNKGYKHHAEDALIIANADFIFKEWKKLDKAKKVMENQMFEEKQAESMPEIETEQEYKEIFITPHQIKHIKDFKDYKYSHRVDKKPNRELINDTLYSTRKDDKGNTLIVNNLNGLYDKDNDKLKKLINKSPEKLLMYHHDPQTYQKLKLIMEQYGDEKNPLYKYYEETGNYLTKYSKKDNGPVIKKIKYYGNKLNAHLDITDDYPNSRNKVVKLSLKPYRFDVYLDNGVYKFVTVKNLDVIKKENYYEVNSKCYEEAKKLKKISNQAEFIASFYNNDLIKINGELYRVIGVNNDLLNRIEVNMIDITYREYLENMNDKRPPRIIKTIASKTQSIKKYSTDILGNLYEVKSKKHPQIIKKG
assay_info: Strand displacement assay, SaCas9 primary screen
Format: biochemical
setup_conditions: SaCas9 primary screen, weaker potential hits, replicate 1
metric: Normalized Zscore Rep 1
Answer as a number with no unit attached.

Recorded results for 4 compounds are shown here.
-- ask If you can, please state the reported Normalized Zscore Rep 1 value of O=C1CC(c2ccc(O)c(O)c2)c2c(nc(SCc3ccc(Cl)cc3)[nH]c2=O)N1 (centres unmarked) .
-- reply 0.1797

-- ask If you can, please state the reported Normalized Zscore Rep 1 value of Cc1noc2c1C(c1ccc(O)c(O)c1)C1=C(CC(c3ccccc3)CC1=O)N2 (centres unmarked) .
-- reply 0.2526

-- ask If you can, please state the reported Normalized Zscore Rep 1 value of "CCN(Cc1ccccc1)c1ccc(NS(C)(=O)=O)cc1C(=O)O" .
-- reply 0.1769

-- ask If you can, please state the reported Normalized Zscore Rep 1 value of "CCN(Cc1ccccc1)c1ncc(NS(=O)(=O)c2c(C)cc(C)cc2C)cc1C(=O)O" .
-- reply 0.2023

Continuing:
-- ask If you can, please state the reported Normalized Zscore Rep 1 value of "Cc1nn2c(=O)cc(COc3ccc(C)c(C)c3)nc2s1" .
-- reply 0.5034

-- ask If you can, please state the reported Normalized Zscore Rep 1 value of "CCN(CCN(C)C)c1ncc(NS(=O)(=O)c2cc(C)c(C)cc2C)cc1C(=O)O" .
-- reply 0.2953

-- ask If you can, please state the reported Normalized Zscore Rep 1 value of "Cc1c(NC(=O)C2=Cc3sc4c(c3CS2)CCCC4)c(=O)n(-c2ccccc2)n1C" .
-- reply 0.2035

-- ask If you can, please state the reported Normalized Zscore Rep 1 value of "CN(C)S(=O)(=O)Nc1cnc(N2CCC(CCN3CCCCC3)CC2)c(C(=O)O)c1" .
-- reply 0.2533
